- Assay system: T1, cynomolgus monkey GITR-Fc (cynomolgus monkey (Macaca fascicularis))
- T1 construct: also called cyno GITR-Fc; cGITR-Fc
- Protocol: direct ELISA, IgG at 1 µg/ml
Reported property: OD450 nm

Provide one value: measured OD450 nm of G-G10 IgG1 (antibody, V domains shown, Human IgG1) VH: EVQLVESGGGLVQPGGSLRLSCAASGFSLSTFGYGVGWVRQAPGKGLEWLAHIWWDDDKYYVDSVKGRFTISRDNAKNSLYLQMNSLRAEDTAVYYCARTRQYFPFAYWGQGTLVTVSS VL: EIVLTQSPATLSLSPGERATLSCRASQSVGTNLAWYQQKPGQAPRLLIYYASYRYTGIPARFSGSGSGTDFTLTISSLEPEDFAVYYCQQYSNDPLTFGGGTKVEIK > 1 OD450 nm
